Let's look at some compounds and their measured λex, best excitation wavelength.
Assay: Fluorescence spectra and quantum yield
Assay type: physicochemical
Conditions: ethanol as the solvent
Report as a plain number; the unit nm is understood.

>  <compound>
COc1ccc(C(=O)C2=C3NCCCCN3C3Oc4ccc(Br)cc4C(=O)C3=C2)cc1 (stereo not drawn)

>  <λex, best excitation wavelength / nm>
470.0

$$$$

Any idea what λex, best excitation wavelength was measured for COc1ccc(C(=O)C2=C3NCCCN3C3Oc4ccc(Br)cc4C(=O)C3=C2)cc1 (stereo not drawn) ?
466.0

Request the reported λex, best excitation wavelength associated with COc1ccc(C(=O)C2=C3NCCCN3C3Oc4ccc(Cl)cc4C(=O)C3=C2)cc1 (stereo not drawn)
449.0

λex, best excitation wavelength for COc1ccc(C(=O)C2=C3NCCCCN3C3Oc4ccc(Cl)cc4C(=O)C3=C2)cc1 (stereo not drawn) ?
470.0

Which λex, best excitation wavelength value belongs to COc1ccc(C(=O)C2=C3NCCCN3C3Oc4ccc(F)cc4C(=O)C3=C2)cc1 (stereo not drawn) ?
464.0

Fill in the blank: the reported λex, best excitation wavelength of COc1ccc(C(=O)C2=C3NCCCCN3C3Oc4ccc(F)cc4C(=O)C3=C2)cc1 (stereo not drawn) is ____.
461.0

* * *

System: MRC-5
Assay: MTT assay, MRC-5 diploid fibroblasts
Type: cell-based, human
Settings: Homo sapiens, MRC5, 96 h, read-out: anticancer activity (IC50) MRC-5
quantity_name: pIC50
pIC50 here: minus log base 10 of the concentration, concentration in moles per litre.

>  <compound>
COc1ccc(C(=O)C2=C3NCCCCN3C3Oc4ccc(F)cc4C(=O)C3=C2)cc1 (centres unmarked) [3fc]

>  <readout_value>
4.32

$$$$
>  <compound>
COc1ccc(C(=O)C2=C3NCCCN3C3Oc4ccc(Br)cc4C(=O)C3=C2)cc1 (centres unmarked) [3ae]

>  <readout_value>
4.50

$$$$
>  <compound>
COc1ccc(C(=O)C2=C3NCCCCN3C3Oc4ccc(Br)cc4C(=O)C3=C2)cc1 (centres unmarked) [3fe]

>  <readout_value>
4.46

$$$$
>  <compound>
COc1ccc(C(=O)C2=C3NCCCCN3C3Oc4ccc(Cl)cc4C(=O)C3=C2)cc1 (centres unmarked) [3fd]

>  <readout_value>
4.48

$$$$

Now for a further compound.
Item under review: COc1ccc(C(=O)C2=C3NCCCN3C3Oc4ccc(Cl)cc4C(=O)C3=C2)cc1 (centres unmarked) [3ad] . Reported pIC50?
4.46

* * *

Test: Fluorescence spectra and quantum yield
Type: physicochemical
Details: ethanol as the solvent
Some compounds, each annotated with its measured λem – λabs, Stokes shift.
Give your result in nm as a bare value.

>  <compound>
COc1ccc(C(=O)C2=C3NCCCN3C3Oc4ccc(Cl)cc4C(=O)C3=C2)cc1 (stereo not drawn)

>  <λem – λabs, Stokes shift (nm)>
80.0

$$$$
>  <compound>
COc1ccc(C(=O)C2=C3NCCCCN3C3Oc4ccc(F)cc4C(=O)C3=C2)cc1 (stereo not drawn)

>  <λem – λabs, Stokes shift (nm)>
83.5

$$$$
>  <compound>
COc1ccc(C(=O)C2=C3NCCCN3C3Oc4ccc(Br)cc4C(=O)C3=C2)cc1 (stereo not drawn)

>  <λem – λabs, Stokes shift (nm)>
79.0

$$$$
>  <compound>
COc1ccc(C(=O)C2=C3NCCCN3C3Oc4ccc(F)cc4C(=O)C3=C2)cc1 (stereo not drawn)

>  <λem – λabs, Stokes shift (nm)>
79.0

$$$$

# lookup: λem – λabs, Stokes shift of COc1ccc(C(=O)C2=C3NCCCCN3C3Oc4ccc(Cl)cc4C(=O)C3=C2)cc1 (stereo not drawn)
83.0

Please report the recorded λem – λabs, Stokes shift for COc1ccc(C(=O)C2=C3NCCCCN3C3Oc4ccc(Br)cc4C(=O)C3=C2)cc1 (stereo not drawn) .
82.5

* * *

Assay: Fluorescence spectra and quantum yield
Assay type: physicochemical
Details: ethanol, rhodamine as the reference
quantity_name: Φ, quantum yield
I'd appreciate a reply containing only the number, no unit.

>  <compound>
COc1ccc(C(=O)C2=C3NCCCN3C3Oc4ccc(Cl)cc4C(=O)C3=C2)cc1 (stereo not drawn) [3ad]

>  <Φ, quantum yield>
0.464

$$$$
>  <compound>
COc1ccc(C(=O)C2=C3NCCCCN3C3Oc4ccc(Br)cc4C(=O)C3=C2)cc1 (stereo not drawn) [3fe]

>  <Φ, quantum yield>
0.329

$$$$
>  <compound>
COc1ccc(C(=O)C2=C3NCCCN3C3Oc4ccc(Br)cc4C(=O)C3=C2)cc1 (stereo not drawn) [3ae]

>  <Φ, quantum yield>
0.428

$$$$
>  <compound>
COc1ccc(C(=O)C2=C3NCCCCN3C3Oc4ccc(Cl)cc4C(=O)C3=C2)cc1 (stereo not drawn) [3fd]

>  <Φ, quantum yield>
0.663

$$$$
>  <compound>
COc1ccc(C(=O)C2=C3NCCCN3C3Oc4ccc(F)cc4C(=O)C3=C2)cc1 (stereo not drawn) [3ac]

>  <Φ, quantum yield>
0.476

$$$$

Please look at the following compound next.
What measured Φ, quantum yield goes with COc1ccc(C(=O)C2=C3NCCCCN3C3Oc4ccc(F)cc4C(=O)C3=C2)cc1 (stereo not drawn) [3fc] ?
0.671

* * *

Assay: UV-vis absorption spectra
Format: physicochemical
Conditions: ethanol as the solvent
quantity_name: λabs, maximal absorption wavelength (nm)
Please reply with the bare figure in nm and do not write the unit itself.

# query: λabs, maximal absorption wavelength of entry COc1ccc(C(=O)C2=C3NCCCN3C3Oc4ccc(F)cc4C(=O)C3=C2)cc1 (stereo not drawn)
440.5

Data request, read-out λabs, maximal absorption wavelength, for COc1ccc(C(=O)C2=C3NCCCCN3C3Oc4ccc(Br)cc4C(=O)C3=C2)cc1 (stereo not drawn)
443.5

Sample COc1ccc(C(=O)C2=C3NCCCN3C3Oc4ccc(Cl)cc4C(=O)C3=C2)cc1 (stereo not drawn) — what was its λabs, maximal absorption wavelength?
440.0

Find the recorded λabs, maximal absorption wavelength belonging to COc1ccc(C(=O)C2=C3NCCCN3C3Oc4ccc(Br)cc4C(=O)C3=C2)cc1 (stereo not drawn) and report it.
441.5

Fill in the blank: the reported λabs, maximal absorption wavelength of COc1ccc(C(=O)C2=C3NCCCCN3C3Oc4ccc(F)cc4C(=O)C3=C2)cc1 (stereo not drawn) is ____.
442.0

Returns the measured λabs, maximal absorption wavelength for the input molecule. Input: COc1ccc(C(=O)C2=C3NCCCCN3C3Oc4ccc(Cl)cc4C(=O)C3=C2)cc1 (stereo not drawn)
443.0
